Test: Gamitrinib pharmacokinetics (PK) in rat plasma, single IV dose
Format: in vivo, Sprague-Dawley rats
Conditions: Sprague-Dawley, rat, plasma, iv, 5 mg/kg, 5 mg/kg IV; individual animals Rat 1-3; read-out: CL

{"ITEM_SMILES": "CO[C@H]1/C=C\\C=C(/C)C(=O)NC2=CC(=O)C(NCCCCCC[P+](c3ccccc3)(c3ccccc3)c3ccccc3)=C(C[C@@H](C)C[C@H](OC)[C@H](O)[C@@H](C)/C=C(\\C)[C@@H]1OC(N)=O)C2=O", "clearance": "79.2 mL/min/kg"}

----------
Biological target: Cav1.2 (Homo sapiens)
Sequence (Q13936 whole entry): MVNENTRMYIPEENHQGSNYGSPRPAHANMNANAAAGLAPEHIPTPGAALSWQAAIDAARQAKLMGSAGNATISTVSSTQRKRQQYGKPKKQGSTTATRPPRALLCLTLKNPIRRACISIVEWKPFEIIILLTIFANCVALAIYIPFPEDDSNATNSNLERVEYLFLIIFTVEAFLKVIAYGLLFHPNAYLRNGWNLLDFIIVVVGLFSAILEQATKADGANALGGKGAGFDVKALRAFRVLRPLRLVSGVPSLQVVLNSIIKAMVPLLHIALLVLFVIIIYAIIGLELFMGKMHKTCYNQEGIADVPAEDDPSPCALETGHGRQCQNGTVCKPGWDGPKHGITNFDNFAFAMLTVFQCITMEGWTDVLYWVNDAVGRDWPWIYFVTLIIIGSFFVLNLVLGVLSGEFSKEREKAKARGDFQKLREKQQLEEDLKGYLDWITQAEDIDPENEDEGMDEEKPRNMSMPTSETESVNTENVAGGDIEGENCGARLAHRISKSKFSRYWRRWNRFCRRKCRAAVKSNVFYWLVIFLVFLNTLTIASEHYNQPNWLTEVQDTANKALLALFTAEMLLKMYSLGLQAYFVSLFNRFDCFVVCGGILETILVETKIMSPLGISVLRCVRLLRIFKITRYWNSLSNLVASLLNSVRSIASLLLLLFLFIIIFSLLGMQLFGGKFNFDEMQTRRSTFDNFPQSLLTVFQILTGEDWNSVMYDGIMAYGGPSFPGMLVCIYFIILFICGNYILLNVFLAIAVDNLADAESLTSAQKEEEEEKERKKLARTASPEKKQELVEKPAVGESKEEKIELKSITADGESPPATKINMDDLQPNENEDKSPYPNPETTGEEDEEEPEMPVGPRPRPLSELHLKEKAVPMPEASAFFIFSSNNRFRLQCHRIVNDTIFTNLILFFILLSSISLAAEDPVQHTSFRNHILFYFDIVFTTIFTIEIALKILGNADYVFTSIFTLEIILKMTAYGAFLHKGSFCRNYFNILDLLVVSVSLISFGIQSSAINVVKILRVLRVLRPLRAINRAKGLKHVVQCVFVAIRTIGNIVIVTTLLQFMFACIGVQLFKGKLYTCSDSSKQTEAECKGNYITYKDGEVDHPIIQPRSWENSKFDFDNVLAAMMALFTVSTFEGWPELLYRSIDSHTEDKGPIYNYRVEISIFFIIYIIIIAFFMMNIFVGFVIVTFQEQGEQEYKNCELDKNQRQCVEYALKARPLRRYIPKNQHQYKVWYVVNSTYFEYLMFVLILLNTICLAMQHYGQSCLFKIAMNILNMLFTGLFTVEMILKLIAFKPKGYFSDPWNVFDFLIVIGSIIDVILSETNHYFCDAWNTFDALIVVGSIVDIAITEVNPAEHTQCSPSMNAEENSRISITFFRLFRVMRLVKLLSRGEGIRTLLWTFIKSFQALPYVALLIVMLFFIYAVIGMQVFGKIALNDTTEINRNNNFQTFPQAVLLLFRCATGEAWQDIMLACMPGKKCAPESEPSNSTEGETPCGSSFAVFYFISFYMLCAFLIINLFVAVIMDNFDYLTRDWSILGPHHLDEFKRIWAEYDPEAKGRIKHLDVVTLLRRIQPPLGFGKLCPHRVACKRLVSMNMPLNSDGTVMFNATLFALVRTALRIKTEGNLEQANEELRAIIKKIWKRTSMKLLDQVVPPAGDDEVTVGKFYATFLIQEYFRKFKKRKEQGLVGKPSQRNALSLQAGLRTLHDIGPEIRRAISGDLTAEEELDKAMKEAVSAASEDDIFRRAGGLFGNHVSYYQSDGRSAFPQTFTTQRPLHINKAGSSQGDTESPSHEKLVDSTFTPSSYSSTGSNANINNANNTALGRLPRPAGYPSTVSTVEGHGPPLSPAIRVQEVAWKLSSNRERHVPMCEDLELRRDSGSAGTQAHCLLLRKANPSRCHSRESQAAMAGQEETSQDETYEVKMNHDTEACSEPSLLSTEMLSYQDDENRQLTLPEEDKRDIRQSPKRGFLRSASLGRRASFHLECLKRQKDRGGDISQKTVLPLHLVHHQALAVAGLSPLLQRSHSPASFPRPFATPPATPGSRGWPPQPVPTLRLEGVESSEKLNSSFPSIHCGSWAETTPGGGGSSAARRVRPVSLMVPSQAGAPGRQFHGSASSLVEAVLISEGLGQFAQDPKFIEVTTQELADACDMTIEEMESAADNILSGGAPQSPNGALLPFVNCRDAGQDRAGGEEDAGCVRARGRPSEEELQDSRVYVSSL
Sequence (Q08289 whole entry partner): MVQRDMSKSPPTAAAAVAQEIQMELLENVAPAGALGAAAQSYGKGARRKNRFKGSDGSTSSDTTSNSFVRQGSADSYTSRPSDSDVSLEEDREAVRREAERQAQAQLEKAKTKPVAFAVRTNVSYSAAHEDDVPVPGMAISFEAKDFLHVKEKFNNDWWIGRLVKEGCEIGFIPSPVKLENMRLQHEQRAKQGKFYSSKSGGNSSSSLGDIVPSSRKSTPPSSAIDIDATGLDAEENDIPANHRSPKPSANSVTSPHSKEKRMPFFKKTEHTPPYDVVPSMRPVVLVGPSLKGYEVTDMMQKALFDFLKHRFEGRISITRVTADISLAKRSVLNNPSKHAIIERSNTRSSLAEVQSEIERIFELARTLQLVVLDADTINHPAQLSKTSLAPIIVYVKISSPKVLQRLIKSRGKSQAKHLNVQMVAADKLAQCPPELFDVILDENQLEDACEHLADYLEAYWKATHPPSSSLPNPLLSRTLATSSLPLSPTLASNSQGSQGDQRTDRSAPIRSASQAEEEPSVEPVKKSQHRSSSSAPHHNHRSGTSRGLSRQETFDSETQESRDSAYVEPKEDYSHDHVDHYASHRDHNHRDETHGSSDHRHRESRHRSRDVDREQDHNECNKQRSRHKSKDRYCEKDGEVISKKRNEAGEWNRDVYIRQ
Sequence (P54289 25-956 partner limits assumed): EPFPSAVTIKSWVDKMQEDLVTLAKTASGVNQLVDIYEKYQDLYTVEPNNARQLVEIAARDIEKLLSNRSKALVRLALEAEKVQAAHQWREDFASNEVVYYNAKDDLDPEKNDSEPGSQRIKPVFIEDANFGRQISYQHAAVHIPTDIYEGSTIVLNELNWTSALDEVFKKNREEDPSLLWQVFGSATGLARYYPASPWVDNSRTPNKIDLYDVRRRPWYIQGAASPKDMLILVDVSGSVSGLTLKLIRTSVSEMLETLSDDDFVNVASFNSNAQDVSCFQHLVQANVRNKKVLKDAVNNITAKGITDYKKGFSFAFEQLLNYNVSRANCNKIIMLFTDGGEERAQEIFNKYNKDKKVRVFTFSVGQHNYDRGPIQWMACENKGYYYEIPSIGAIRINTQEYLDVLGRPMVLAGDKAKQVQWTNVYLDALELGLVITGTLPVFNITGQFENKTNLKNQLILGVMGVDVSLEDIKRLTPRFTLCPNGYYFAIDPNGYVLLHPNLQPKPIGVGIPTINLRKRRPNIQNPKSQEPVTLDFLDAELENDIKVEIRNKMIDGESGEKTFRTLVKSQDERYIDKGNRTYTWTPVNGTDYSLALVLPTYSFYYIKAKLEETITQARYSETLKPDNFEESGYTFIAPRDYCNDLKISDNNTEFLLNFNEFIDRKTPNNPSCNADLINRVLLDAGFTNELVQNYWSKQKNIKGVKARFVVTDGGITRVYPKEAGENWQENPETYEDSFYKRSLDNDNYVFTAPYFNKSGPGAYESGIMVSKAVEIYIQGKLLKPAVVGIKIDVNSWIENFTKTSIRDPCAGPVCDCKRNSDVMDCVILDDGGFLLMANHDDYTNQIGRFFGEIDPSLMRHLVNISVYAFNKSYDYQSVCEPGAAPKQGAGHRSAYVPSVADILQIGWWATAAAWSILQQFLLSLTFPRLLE
Sequence (P54289 957-1103 partner limits assumed): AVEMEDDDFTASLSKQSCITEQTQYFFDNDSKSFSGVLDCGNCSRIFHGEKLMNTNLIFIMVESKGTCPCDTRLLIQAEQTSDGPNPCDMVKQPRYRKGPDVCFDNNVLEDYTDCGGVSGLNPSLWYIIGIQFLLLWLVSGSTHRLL
Experiment: Ion channel screening, Cav1.2
Type: cell-based
Settings: n=34, pulse 2, read-out: inhibition of Cav1.2 currents
REPORTED_PROPERTY: inhibition at 10 µM (%)

{"MOLECULE": "CO[C@H]1/C=C\\C=C(/C)C(=O)NC2=CC(=O)C(NCCCCCC[P+](c3ccccc3)(c3ccccc3)c3ccccc3)=C(C[C@@H](C)C[C@H](OC)[C@H](O)[C@@H](C)/C=C(\\C)[C@@H]1OC(N)=O)C2=O [Gamitrinib]", "REPORTED_PROPERTY": "inhibition at 10 µM", "RECORDED_RESULT": 12.2}
